molecular target: nAChRs (nicotinic acetylcholine receptors) in G. pulex membrane protein extract; construct: native whole-animal crude membrane protein pellet (43,000g); experiment: equilibrium binding to membrane protein, unlabelled ligand, ultracentrifugation, online-SPE LC-HRMS/MS; conditions: 10 mM Tris-HCl pH 7.4, 23 °C, 2 h; one-site specific binding model; no displacement control described; read-out: best fit
pKd: −log10 of the molar value.

| molecule | pKd |
| --- | --- |
| N#C/N=C1\SCCN1Cc1ccc(Cl)nc1 | 9.39 |

The measurements presented in this section are drawn from paper PMC10286312.
